# System: HEK-293T
# MEASUREMENT_DESCRIPTION: Multiplex assay against HEK293T
# Type: toxicity, cell-based
# CONDITIONS_USED: human, 48 h, 10 µM, compound concentration 10 uM, replicate 1
Non-standard residues stand in square brackets, D forms with d. Residues, ends and D or L forms follow the SMILES beside them.
MEASURE: Population Normal (%)
State the value, then name its unit.

response.value for CN(C)C/C=C/C(=O)Nc1ccc(C(=O)N2CCCC(Nc3ncc(Cl)c(-c4c[nH]c5ccccc45)n3)C2)cc1 (stereo not drawn) (field: Population Normal (%)) = 32%

response.value for COc1cc2nc(N3CCN(C(=O)COc4c(OC)cccc4C(C)C)CC3)nc(N)c2cc1OC.Cl.Cl (field: Population Normal (%)) = 58%

response.value for CCC(=O)OCC(=O)[C@@]1(OC(=O)CC)[C@@H](C)C[C@H]2[C@@H]3CCC4=CC(=O)C=C[C@]4(C)[C@@]3(Cl)[C@@H](O)C[C@@]21C [BECLOMETHASONE DIPROPIONATE] (field: Population Normal (%)) = 94%

response.value for CN1C[C@H](C(=O)N[C@]2(C)O[C@@]3(O)[C@@H]4CCCN4C(=O)[C@H](Cc4ccccc4)N3C2=O)C[C@@H]2c3cccc4[nH]cc(c34)C[C@H]21.CS(=O)(=O)O [DIHYDROERGOTAMINE MESYLATE] (field: Population Normal (%)) = 97%

response.value for Cc1cc(O)c(-c2ccc([C@@H](C)CN(C)C)cc2)c2c1[nH]c(=O)c1sccc12 (field: Population Normal (%)) = 59%

response.value for CN1CCN(c2ccc(Nc3c4ccccc4nc4ccccc34)cc2)CC1.Cl.Cl.O (field: Population Normal (%)) = 88%

response.value for CCCCCCNC(=O)Nc1ccc(S(=O)(=O)Nc2ccc(CCNC[C@H](O)COc3ccc(O)cc3)cc2)cc1 (field: Population Normal (%)) = 88%

response.value for N[C@](CC1c2ccccc2Oc2ccccc21)(C(=O)O)[C@H]1C[C@@H]1C(=O)O (field: Population Normal (%)) = 97%

response.value for Cc1c(Cc2ccc3ccccc3n2)c2cc(F)ccc2n1CC(=O)O (field: Population Normal (%)) = 95%

response.value for Nc1nc(-c2ccco2)c2cnn(Cc3ccccc3F)c2n1 (field: Population Normal (%)) = 92%

response.value for O=C(Nc1cc(-c2ccccc2)nn1-c1ccccc1F)c1ccc([N+](=O)[O-])cc1 (field: Population Normal (%)) = 97%

response.value for CC(C)C[C@@H]1NC(=O)[C@@H](C(C)C)NC(=O)[C@@H]2CCCN2C(=O)[C@@H](CC(=O)O)NC(=O)[C@@H](Cc2c[nH]c3ccccc23)NC1=O [BQ-123] (cyclo(L[dW][dD]P[dV])) (field: Population Normal (%)) = 96%

response.value for Nc1nc(CC(=O)Nc2ccc(CCNC[C@H](O)c3ccccc3)cc2)cs1 (field: Population Normal (%)) = 96%

response.value for Cn1cc(C(=O)OCC2CCN(CCNS(C)(=O)=O)CC2)c2ccccc21 (field: Population Normal (%)) = 93%

response.value for O=c1nc2[nH]c3ccccc3nc-2c(=O)[nH]1 (field: Population Normal (%)) = 96%

response.value for COc1cc(Nc2ncc3c(n2)-c2ccc(Cl)cc2C(c2c(F)cccc2OC)=NC3)ccc1C(=O)O (field: Population Normal (%)) = 94%

response.value for C[C@H](NC(=O)CNC(=O)c1cccc(Cl)c1)c1ccccc1 (field: Population Normal (%)) = 98%

response.value for CN1CCN2c3ccccc3Cc3ccccc3C2C1.Cl (stereo not drawn) [MIANSERIN HYDROCHLORIDE] (field: Population Normal (%)) = 97%

response.value for CC(C)(C)c1ccc(CSc2cnn(C(C)(C)C)c(=O)c2Cl)cc1 (field: Population Normal (%)) = 88%

response.value for Cc1cc(=O)n(C)c2cc(N3C(=O)CC[C@H](NS(=O)(=O)CC(C)C)[C@H]3c3ccc(Cl)cc3)ccc12 (field: Population Normal (%)) = 89%

response.value for CSc1nc(NC2CCCC2)c([N+](=O)[O-])c(NC2CCCC2)n1 (field: Population Normal (%)) = 96%

response.value for CCCCC[C@H](O)/C=C/[C@H]1[C@H](O)CC(=O)[C@@H]1CCCCCCC(=O)O (field: Population Normal (%)) = 97%

response.value for Cc1ccc(OCC(O)C(C)NC(C)C)c2c1CCC2.Cl (stereo not drawn) (field: Population Normal (%)) = 94%

response.value for CCn1c(-c2nc3cc(C(=O)N4CCCC(N)C4)ccc3n2C)cc2ccccc21.Cl (stereo not drawn) (field: Population Normal (%)) = 84%

response.value for CN(C)C(=O)Cn1cc(-c2ccc(-c3nnc4ccccn34)cc2)cn1 (field: Population Normal (%)) = 94%

response.value for COc1ccc2[nH]c(I)c(CCNC(C)=O)c2c1 (field: Population Normal (%)) = 98%

response.value for COc1ccc2c(c1OCc1ccccc1)C[C@@H](C(=O)O)N(C(=O)C(c1ccccc1)c1ccccc1)C2 (field: Population Normal (%)) = 94%

response.value for CC(C)(O)C(=O)N1CCN(c2ccc(C(F)(F)F)c(C3=C(c4c[nH]c5ccccc45)C(=O)NC3=O)c2)CC1 (field: Population Normal (%)) = 91%

response.value for COCCCN1CCC(NC(=O)c2cc(Cl)c(N)c3c2OCC3)CC1 [PRUCALOPRIDE] (field: Population Normal (%)) = 98%

response.value for CC(C)C[C@H](CO)Nc1nc(S[C@@H](C)c2ccccc2)nc2nc(N)sc12 (field: Population Normal (%)) = 92%

response.value for COc1cc2nc(N3CCN(C(=O)c4ccco4)CC3)nc(N)c2cc1OC.Cl [PRAZOSIN HYDROCHLORIDE] (field: Population Normal (%)) = 95%

response.value for C=CCN1C[C@H](C(=O)N(CCCN(C)C)C(=O)NCC)C[C@@H]2c3cccc4[nH]cc(c34)C[C@H]21 (field: Population Normal (%)) = 94%

response.value for O=c1ccc2ccc(OCCCCN3CCN(c4cccc5sccc45)CC3)cc2[nH]1 (field: Population Normal (%)) = 32%
